All values here come from paper PMC7307922.

# assay_method_text: Kinetic aqueous solubility in PBS pH 7.4
# Type: physicochemical
# test_context: phosphate buffered saline, pH 7.4; read-out: Aq. solub.
Label scheme for solubility: lower than 100 µM is not met, 100 µM and above is met.

[[record]]
compound = "CCCC1C(C(=O)Nc2cccc(Cl)c2)=C(C)NC2=C1C(=O)CCC2 (stereo not shown)"
assigned_label = "met"

[[record]]
compound = "CC1=C(C(=O)Nc2ccccc2C)C(c2ccco2)C2=C(CCCC2=O)N1 (stereo not shown) [Compound 1, reference compound]"
assigned_label = "met"

[[record]]
compound = "CCCC1C(C(=O)Nc2ccccc2Cl)=C(C)NC2=C1C(=O)CCC2 (stereo not shown)"
assigned_label = "met"

[[record]]
compound = "CC1=C(C(=O)Nc2cc(Cl)ccc2Cl)C(C2CCCC2)C2=C(CCCC2=O)N1 (stereo not shown)"
assigned_label = "not met"

[[record]]
compound = "CC1=C(C(=O)Nc2cc(Cl)ccc2Cl)C(c2ccco2)C2=C(CCCC2=O)N1 (stereo not shown) [Compound 16, reference compound]"
assigned_label = "not met"

[[record]]
compound = "CCCC1C(C(=O)Nc2cc(Cl)ccc2Cl)=C(C)NC2=C1C(=O)CCC2 (stereo not shown)"
assigned_label = "not met"

[[record]]
compound = "CCCC1C(C(=O)Nc2cc(C)ccc2Cl)=C(C)NC2=C1C(=O)CCC2 (stereo not shown)"
assigned_label = "met"

